# EXPERIMENTAL SYSTEM: 5-hydroxytryptamine receptor 2A (Homo sapiens)
# TEST SUMMARY: 5-hydroxytryptamine receptor 2A (HTR2A) small molecule agonists, cell-based qHTS assay (AID 1963587); also: nearly all actives have a fitted effect of over 30% in size
# MEASUREMENT CONDITIONS: HTR2A-CHO cells, calcium flux fluorescence, agonist mode; series mostly up to 76.8 µM
Records with an inconclusive call do not appear. The source made the active and inactive calls. Calls follow the shape of the full dose curve.
Entry note: the call must match one of true (active), false (inactive)

Examples with answers:
> print(dat)
                       molecule                       experimental.system  assigned.category
1  Oc1cc(Cl)ccc1Oc1ccc(Cl)cc1Cl  5-hydroxytryptamine receptor 2A (Homo sapiens)               true
2                ClCc1ccccc1CCl  5-hydroxytryptamine receptor 2A (Homo sapiens)              false
3    O=P(O)(Oc1ccccc1)Oc1ccccc1  5-hydroxytryptamine receptor 2A (Homo sapiens)              false

Okay, next one:
Task: Hi, sorry to bother you, what did the test record for C=CCBr ?
Output: false

* * *

# EXPERIMENTAL SYSTEM: 5-hydroxytryptamine receptor 2A (Homo sapiens) (UniProt P28223)
# Sequence (P28223 whole entry, looked up): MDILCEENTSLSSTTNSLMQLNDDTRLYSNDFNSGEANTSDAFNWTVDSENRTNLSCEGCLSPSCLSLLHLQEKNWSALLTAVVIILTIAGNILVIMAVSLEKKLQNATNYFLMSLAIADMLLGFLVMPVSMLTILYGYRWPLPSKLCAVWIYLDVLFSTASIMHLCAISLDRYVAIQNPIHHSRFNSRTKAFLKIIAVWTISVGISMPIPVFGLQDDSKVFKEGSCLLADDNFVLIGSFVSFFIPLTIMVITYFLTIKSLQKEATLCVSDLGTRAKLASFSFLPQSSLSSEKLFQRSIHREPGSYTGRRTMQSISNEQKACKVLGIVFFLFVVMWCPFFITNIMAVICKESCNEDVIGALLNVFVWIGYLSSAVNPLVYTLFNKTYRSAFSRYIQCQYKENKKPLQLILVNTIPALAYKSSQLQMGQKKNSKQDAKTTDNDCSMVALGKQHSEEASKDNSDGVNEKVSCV
# TEST SUMMARY: 5-hydroxytryptamine receptor 2A (HTR2A) small molecule antagonists, cell-based qHTS assay (AID 1963586); also: nearly all actives have a fitted effect of over 45% in size
# MEASUREMENT CONDITIONS: HTR2A-CHO cells, DOI-induced calcium flux, fluorescence; series mostly up to 61.5 µM
Records with an inconclusive call do not appear. Activity calls are given as the source filed them. Calls come from the whole dose curve.
Entry note: the call must match one of active, inactive

Examples with answers:
> print(dat)
                           molecule                       experimental.system  assigned.category
1                            N#CCCO  5-hydroxytryptamine receptor 2A (Homo sapiens) (UniProt P28223)           inactive
2                       Sc1ccccc1Cl  5-hydroxytryptamine receptor 2A (Homo sapiens) (UniProt P28223)           inactive
3                        N#CN=C(N)N  5-hydroxytryptamine receptor 2A (Homo sapiens) (UniProt P28223)           inactive
4  C#CC(C)(C)NC(=O)c1cc(Cl)cc(Cl)c1  5-hydroxytryptamine receptor 2A (Homo sapiens) (UniProt P28223)           inactive
5                     COP(=O)(OC)OC  5-hydroxytryptamine receptor 2A (Homo sapiens) (UniProt P28223)           inactive
6                c1ccc(N2CCNCC2)cc1  5-hydroxytryptamine receptor 2A (Homo sapiens) (UniProt P28223)             active

Task: Hi, sorry to bother you, what did the test record for CCCCCCCCCCCCOS(=O)(=O)O ?
Output: inactive

Task: And what about the molecule C[N+](C)(C)Cc1ccccc1 ?
Output: inactive

* * *

# EXPERIMENTAL SYSTEM: D(2) dopamine receptor (Homo sapiens) (UniProt P14416)
# Sequence (P14416 whole entry, looked up): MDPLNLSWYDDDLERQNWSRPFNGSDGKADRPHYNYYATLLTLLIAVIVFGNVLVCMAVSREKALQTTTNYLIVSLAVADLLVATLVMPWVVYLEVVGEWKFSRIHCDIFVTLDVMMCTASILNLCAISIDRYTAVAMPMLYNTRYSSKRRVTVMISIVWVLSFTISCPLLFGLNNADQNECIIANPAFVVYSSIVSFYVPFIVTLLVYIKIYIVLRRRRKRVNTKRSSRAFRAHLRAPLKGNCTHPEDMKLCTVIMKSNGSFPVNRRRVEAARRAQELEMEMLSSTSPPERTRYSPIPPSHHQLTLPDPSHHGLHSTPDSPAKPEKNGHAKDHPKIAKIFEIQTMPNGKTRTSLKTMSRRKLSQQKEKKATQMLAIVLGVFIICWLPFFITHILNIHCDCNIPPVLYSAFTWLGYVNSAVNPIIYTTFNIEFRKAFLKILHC
# TEST SUMMARY: Dopamine D2 receptor (DRD2) small molecule antagonists, cell-based qHTS assay (AID 1963595)
# MEASUREMENT CONDITIONS: HEK293-DRD2 cAMP HTRF antagonist mode; series mostly up to 92.4 µM
Inconclusive results are not listed. The source made the active and inactive calls. Calls follow the shape of the dose curve; as a rule, active = well fitted inhibition curve with a large enough effect in the signal ratio in the repeat runs, with a control signal flat; inconclusive = weak or mixed curves, or effect the other way; inactive = flat fitted curve, though single readings scatter; the % refers to the signal ratio.
OBSERVABLE: outcome

Take a look at these entries with their results.
> print(dat)
                     molecule    result
1               CC[n+]1ccccc1  inactive
2    COC(=O)Nc1nc2ccccc2[nH]1  inactive
3                Cc1cccc(N)c1  inactive
4              N#CC(Cl)(Cl)Cl  inactive
5  CC(C)Nc1nc(Cl)nc(NC(C)C)n1  inactive
6          CC[C@H](N)c1ccccc1  inactive

Task: Report outcome for N#CCNCC#N please.
Output: inactive

Task: And what about the compound OCCOc1ccccc1 ?
Output: inactive
